Every entry's value here was drawn from patent US5260286A.

ASSAY TEXT: Lethality of NMDA in mice
Set-up: species or system male Swiss-Webster mice
EXPERIMENTAL CONDITIONS: mouse, in vivo; 200 mg/kg NMDA; read-out: mice died at 200 mg/kg NMDA
ASSAY ENDPOINT: mortality

For this compound ( CN[C@H](CC(=O)O)C(=O)O [NMDA, N-methyl-D-aspartate] ), measured mortality is ~90%
